- Tested on: BT474 (human breast carcinoma)
- measurement protocol: In vitro tumor cell proliferation assay (Cell Titer-Glo luminescent cell viability), BT474
- Format: cell-based
- measurement conditions: BT-474, 72 h, BT474 cells, 72 hours of drug exposure, ATP luminescence readout, read-out: IC50, anti-proliferative activity (inhibition of cell proliferation)
pIC50: −log10 of the molar value. Where a name gives a salt, the structure may show the parent alone.
metric name: pIC50

See these solved cases before continuing.
COCCNC[C@@H](O)Cn1ncc2c1CCc1c-2sc2ncnc(Nc3ccc(OCc4cccc(F)c4)c(Cl)c3)c12 [Example 173, trifluoroacetate] :: ≥ 6.00
Fc1cccc(COc2ccc(Nc3ncnc4sc5c(c34)CCc3nn(CCN4CCCC4)cc3-5)cc2Cl)c1 :: ≥ 6.00
Fc1ccc(Nc2ncnc3sc4c(c23)CCc2nn(CCN3CCOCC3)cc2-4)cc1Cl :: ≥ 5.30

Query: Looking for the measured pIC50 of CN(C)[C@H]1CCN(C[C@@H](O)Cn2cc3c(n2)CCc2c-3sc3ncnc(Nc4ccc(OCc5cccc(F)c5)c(Cl)c4)c23)C1 , can you help?
Reply: ≥ 6.00

----------
- Test system: BT474 (human breast carcinoma)
- measurement protocol: In vitro tumor cell proliferation assay (Cell Titer-Glo luminescent cell viability), BT474
- Assay type: cell-based
- measurement conditions: BT-474, 72 h, BT474 cells, 72 hours of drug exposure, ATP luminescence readout, read-out: IC50, anti-proliferative activity (inhibition of cell proliferation)
Exercise: state measured IC50 for each of the compounds provided.

Example entries begin here.
OCCn1ncc2c1CCc1c-2sc2ncnc(Nc3ccc4c(cnn4Cc4cccc(F)c4)c3)c12 :: ≤ 1000 nM
CC(C)(C)OC(=O)N1CCC(n2cc3c(n2)CCc2c-3sc3ncnc(Nc4ccc(OCc5cccc(F)c5)c(Cl)c4)c23)CC1 :: ≤ 50000 nM
CS(=O)(=O)OCCn1cc2c(n1)CCc1c-2sc2ncnc(Nc3ccc(OCc4cccc(F)c4)c(Cl)c3)c12 :: ≤ 1000 nM

Now look at this entry.
Query: Please give the measured IC50 for this compound: COCCN(CCOC)C[C@@H](O)Cn1cc2c(n1)CCc1c-2sc2ncnc(Nc3ccc(OCc4cccc(F)c4)c(Cl)c3)c12
Reply: ≤ 1000 nM

----------
Record form. Attribute: pIC50. Fill in for each entry.
- System: BT474 (human breast carcinoma)
- measurement protocol: In vitro tumor cell proliferation assay (Cell Titer-Glo luminescent cell viability), BT474
- Type: cell-based
- measurement conditions: BT-474, 72 h, BT474 cells, 72 hours of drug exposure, ATP luminescence readout, read-out: IC50, anti-proliferative activity (inhibition of cell proliferation)
- Method: In vitro Tumor Cell Proliferation Assay […] A431cells (human epidermoid carcinoma, ATCC […]) and BT474 (human breast carcinoma, ATCC […]) were plated at a density of 2.5×10^3 cells/well in 96 well black-clear bottom tissue culture plates in RPMI media with 10% Fetal Bovine Serum and incubated at 37° C. […] The plates were mixed for 2 min on orbital shaker to ensure cell lysis and incubated for 10 min at room temperature to stabilize luminescence signal. […]
pIC50: −log10 of the molar value. Counter-ions that a name gives are not always drawn.

Cc1cccc(COc2ccc(Nc3ncnc4sc5c(c34)CCc3c-5cnn3CCN3CCN(C)CC3)cc2Cl)c1 [Example 320, trifluoroacetate] :: ≥ 5.30
CCN1CCN(CCn2cc3c(n2)CCc2c-3sc3ncnc(Nc4ccc(F)c(Cl)c4)c23)CC1 [Example 36] :: ≥ 5.30
COCCNCCn1cc2c(n1)CCc1c-2sc2ncnc(Nc3ccc(OCc4ccccn4)c(Cl)c3)c12 [Example 103] :: ≥ 6.00

Here is the next item to consider.
Query: Item under review: CN(C)[C@H]1CCN(CCn2cc3c(n2)CCc2c-3sc3ncnc(Nc4ccc(F)c(Cl)c4)c23)C1 [Example 2] . Reported pIC50?
Reply: ≥ 6.00
